B1: Hairpin Ribozyme (parent)
chain: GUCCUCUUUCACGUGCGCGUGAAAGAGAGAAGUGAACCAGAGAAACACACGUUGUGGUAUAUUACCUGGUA

Variants of: B1
Experiment: self-cleavage, relative activity (ratio to wild type); higher = more cleavage; co-transcriptional
# Lookup of reported self-cleavage keyed by entry

| Mutant designation | self-cleavage |
| --- | --- |
| U9G G15A | 0.646 |
| C4U U7A | 0.296 |
| C12U U67C | 0.237 |
| G27U G29C | 0.101 |
| G13C A35G | 0.801 |
| G13C G40A | 0.299 |
| G21C C48U | 0.098 |
| G13U U67G | 0.241 |
| C65U U70C | 0.111 |
| C16A G32C | 0.0596 |
| C37G A41C | 0.282 |
| G19A U58G | 0.583 |
| G15A A24G | 0.963 |
| G56U A59C | 0.135 |
| A28C C38U | 0.218 |
| A36U G40U | 0.126 |
| G15A A43U | 0.178 |
| A22G C48U | 0.149 |
| C12U U60C | 1.02 |
| G25A U67A | 0.118 |
| G56A U63G | 0.0781 |
| G29A A47C | 0.107 |
| U63A A71C | 0.287 |
| A28U G51C | 0.49 |
| U8G A22C | 0.556 |
| U5C C37A | 0.178 |
| A45G C48A | 0.109 |
| U14G A26C | 0.522 |
| U9C G15A | 0.76 |
| U5A U60C | 0.709 |
| G1A C12U | 0.266 |
| A11U U14G | 0.536 |
| U55A U63G | 0.142 |
| G54U G68U | 0.302 |
| U2G A47U | 0.0492 |
| C3U A22C | 0.491 |
| A35U | 0.811 |
| C16G U33A | 0.105 |
| G32U U70C | 0.138 |
| A36C G51A | 0.799 |
| G17U U67G | 0.278 |
| G25A G34C | 1.34 |
| C38U G42U | 0.2 |
| A24C U70A | 0.985 |
| A47U U60A | 0.0931 |
| G56U U67A | 0.23 |
